Below: a set of entries, each annotated with reported Selectivity ratio.
assay-text: Selectivity for 5-HT2B receptor over 5-HT2C receptor
quantity-kind: Selectivity ratio

                                   compound  cmp  reported_measurement
0  O=C(c1ccc(-c2ccccc2)cc1)N1CCC(c2nc3ccccc3[nH]2)CC1    >                 10000
1  N#Cc1cc(CN2CCC(Nc3ncnc4sc(Cl)cc34)CC2)ccc1F [PRX-08066 FREE BASE]    >                  3000
2  Cc1cc2c(cc1Cl)N(C(=O)Nc1cccc3ncccc13)CC2    =                   0.5
3      CC(C)c1cc(-c2ccc(F)c3ccccc23)nc(N)n1    =                    92

----------
assay-text: Aqueous solubility of compound at pH 7.4
Type: physicochemical
conditions: aqueous medium
quantity-kind: solubility (µg/mL)

>>> print(df.to_string())
                                 mol_smiles  unit_of_measure  reported_measurement
0  O=C(c1ccc(-c2ccccc2)cc1)N1CCC(c2nc3ccccc3[nH]2)CC1            µg/mL                     3

----------
measured-on: UniProt P41595
assay-text: Antagonist activity at 5-HT2B receptor expressed in CHOK1 cells assessed as inhibition of serotonin-induced intracellular Ca2+ flux by aequorin luminescence assay
Format: functional, cell-based, CHO-K1
Below: a set of entries, each annotated with reported IC50.
quantity-kind: IC50 (µM)

                                 mol_smiles  unit_of_measure  cmp  reported_measurement
0  O=S(=O)(c1ccc(-c2ccccc2)cc1)N1CCC(c2nc3ccccc3[nH]2)CC1               µM    =                0.0019
1  Cc1cc2c(cc1Cl)N(C(=O)Nc1cccc3ncccc13)CC2               µM    =                 0.013
2  O=C(c1ccc(-c2ccccc2)cc1)N1CC(c2nc3ccccc3[nH]2)C1               µM    =                  0.15
3  NC(=O)C1CCN(C(=O)c2ccc(-c3ccccc3)cc2)CC1               µM    >                   6.5
4  O=S(=O)(c1ccc(-c2ccccc2)cc1)N1CCC(Cc2nc3ccccc3[nH]2)CC1               µM    =                   1.1
5  CCOc1nc(-c2ccccc2)ncc1C(=O)N1CCC(c2nc3ccccc3[nH]2)CC1               µM    =                 0.006
6      CC(C)c1cc(-c2ccc(F)c3ccccc23)nc(N)n1               µM    =                0.0007
7  O=C(c1ccc(-c2ccc(OC(F)(F)F)cc2)cc1)N1CCC(c2nc3ccccc3[nH]2)CC1               µM    =                 0.095
8  O=C(c1ccc(-c2ccccc2)cc1)N1CCC(Cc2ncc[nH]2)CC1               µM    =                0.0004

----------
measured-on: 5-hydroxytryptamine receptor 2B (Homo sapiens)
assay-text: Antagonist activity at 5-HT2B receptor expressed in CHOK1 cells assessed as inhibition of serotonin-induced intracellular Ca2+ flux by aequorin luminescence assay in presence of 4% human serum albumin
Type: functional, cell-based, CHO-K1
Below: a set of entries, each annotated with reported IC50.
quantity-kind: IC50

>>> print(df.to_string())
                                 mol_smiles  quantity_kind  reported_measurement
0  O=C(c1ccc(N2CCOCC2)cc1)N1CCC(c2nc3ccccc3[nH]2)CC1           IC50               > 26 µM
1  O=C(c1ccc(-c2ccccc2)cc1)N1CCC(c2nc3ccccc3o2)CC1           IC50               > 20 µM
2  O=C(c1ccc(-c2ccccc2)cc1)N1CC(c2nc3ccccc3[nH]2)C1           IC50              > 2.8 µM
3  O=C(c1ccc(Br)cc1)N1CCC(c2nc3ccccc3[nH]2)CC1           IC50               > 26 µM

----------
measured-on: 5-hydroxytryptamine receptor 2B (Homo sapiens, UniProt P41595)
Sequence (P41595 whole entry): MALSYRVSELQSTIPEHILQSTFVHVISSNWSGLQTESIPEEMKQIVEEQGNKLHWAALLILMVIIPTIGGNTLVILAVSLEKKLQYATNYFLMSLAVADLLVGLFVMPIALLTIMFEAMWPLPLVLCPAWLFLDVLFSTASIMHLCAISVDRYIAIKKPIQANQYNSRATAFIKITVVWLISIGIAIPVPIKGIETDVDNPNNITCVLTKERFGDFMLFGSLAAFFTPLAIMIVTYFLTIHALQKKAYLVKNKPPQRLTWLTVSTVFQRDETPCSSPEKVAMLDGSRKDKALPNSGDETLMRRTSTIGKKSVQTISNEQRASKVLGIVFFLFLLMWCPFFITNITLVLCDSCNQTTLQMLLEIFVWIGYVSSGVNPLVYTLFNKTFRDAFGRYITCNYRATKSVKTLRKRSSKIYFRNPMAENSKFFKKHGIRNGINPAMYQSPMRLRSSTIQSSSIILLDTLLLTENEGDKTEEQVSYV
assay-text: Antagonist activity at 5-HT2B receptor expressed in CHOK1 cells assessed as inhibition of serotonin-induced intracellular Ca2+ flux by aequorin luminescence assay
Format: functional, cell-based, CHO-K1
pIC50: −log10 of the molar value.
Below: a set of entries, each annotated with reported pIC50.
quantity-kind: pIC50

>>> df
                                    compound  cmp  reported_measurement
 0  NC(=O)c1ccc(-c2ccc(C(=O)N3CCC(c4nc5ccccc5[nH]4)CC3)cc2)cc1    <                  5.62
 1  Cn1c(C2CCN(C(=O)c3ccc(-c4ccccc4)cc3)CC2)nc2ccccc21    =                  7.10
 2   O=C(c1ccccc1)N1CCC(c2nc3ccccc3[nH]2)CC1    <                  5.00
 3  COc1cc(-c2ccccc2)ccc1C(=O)N1CCC(c2nc3ccccc3[nH]2)CC1    =                  8.40
 4  O=S(=O)(c1ccc(-c2ccccc2)cc1)N1CCC(c2ncc[nH]2)CC1    =                  9.52
 5  O=C(c1ccc(N2CCOCC2)cc1)N1CCC(c2nc3ccccc3[nH]2)CC1    =                  5.64
 6  O=C(c1ccc(-c2cccnc2)cc1)N1CCC(c2nc3ccccc3[nH]2)CC1    =                  6.47
 7  O=C(C1CCC(c2ccccc2)CC1)N1CCC(c2nc3ccccc3[nH]2)CC1 (configuration not stated)    =                  6.21
 8  O=C(c1ccc(-c2ccncc2)cc1)N1CCC(c2nc3ccccc3[nH]2)CC1    <                  5.89
 9  O=S(=O)(c1ccc(-c2ccc(F)cc2)cc1)N1CCC(c2ncc[nH]2)CC1    =                  9.22
10  O=C(c1ccc(Br)cc1)N1CCC(c2nc3ccccc3[nH]2)CC1    <                  4.89
11  O=C(c1ccc(N2CCCCC2)cc1)N1CCC(c2nc3ccccc3[nH]2)CC1    =                  7.32

----------
measured-on: 5-hydroxytryptamine receptor 2B (Homo sapiens, UniProt P41595)
assay-text: Antagonist activity at 5-HT2B receptor expressed in CHOK1 cells assessed as inhibition of serotonin-induced intracellular Ca2+ flux by aequorin luminescence assay in presence of 4% human serum albumin
Format: functional, cell-based, CHO-K1
Below: a set of entries, each annotated with reported IC50.
quantity-kind: IC50

In [3]: df
Out[3]:
                                   compound  quantity_kind  reported_measurement
0  O=C(C1CCC(c2ccccc2)CC1)N1CCC(c2nc3ccccc3[nH]2)CC1 (stereo not drawn)           IC50               > 20 µM
1  O=S(=O)(c1ccc(-c2ccccc2)cc1)N1CCC(Cc2nc3ccccc3[nH]2)CC1           IC50               > 23 µM
2  O=C(c1ccc(-c2ccccc2)[nH]c1=O)N1CCC(c2nc3ccccc3[nH]2)CC1           IC50                > 3 µM

Cited source for all entries: ChEMBL document CHEMBL1138587
